The measurements presented in this section are drawn from ChEMBL document CHEMBL1131373.

pIC50: −log10 of the molar value.
Record set of pIC50 for target or system Cholecystokinin receptor type A (Rattus norvegicus).
RECORDED_METRIC: pIC50

[[record]]
line_notation = "CN(C)c1cccc(-n2c(NNC(=O)Nc3cccc(C#N)c3)nc3ccccc3c2=O)c1"
recorded_metric = "pIC50"
value_measured = 5.15

[[record]]
line_notation = "COc1ccccc1NC(=O)NNc1nc2ccccc2c(=O)n1-c1cccc(OC(C)C)c1"
recorded_metric = "pIC50"
value_measured = 5.38

[[record]]
line_notation = "CC(C)Oc1cccc(-n2c(NNC(=O)Nc3ccc(Br)cc3)nc3ccccc3c2=O)c1"
recorded_metric = "pIC50"
value_measured = 5.46

[[record]]
line_notation = "COc1cccc(N(CC(=O)N(C)c2ccccc2)C(=O)CNC(=O)Nc2cccc(C(=O)O)c2)c1"
recorded_metric = "pIC50"
value_measured = 6.03

[[record]]
line_notation = "CC(C)Oc1cccc(-n2c(NNC(=O)Nc3cccc(C(F)(F)F)c3)nc3ccccc3c2=O)c1"
recorded_metric = "pIC50"
value_measured = 5.65

[[record]]
line_notation = "CC(C)Oc1cccc(-n2c(NNC(=O)Nc3ccc(Cl)cc3)nc3ccccc3c2=O)c1"
recorded_metric = "pIC50"
value_measured = 5.44

[[record]]
line_notation = "CC(C)Oc1cccc(-n2c(NNC(=O)Nc3cccc(C#N)c3)nc3ccccc3c2=O)c1"
recorded_metric = "pIC50"
value_measured = 5.27

[[record]]
line_notation = "Cc1cccc(NC(=O)NNc2nc3ccccc3c(=O)n2-c2cccc(OC(C)C)c2)c1"
recorded_metric = "pIC50"
value_measured = 5.19

[[record]]
line_notation = "CCOC(=O)c1cccc(NC(=O)NNc2nc3ccccc3c(=O)n2-c2cccc(OC(C)C)c2)c1"
recorded_metric = "pIC50"
value_measured = 5.46

[[record]]
line_notation = "O=C(NNc1nc2ccccc2c(=O)n1-c1ccccc1)Nc1ccccc1"
recorded_metric = "pIC50"
value_measured = 5.13

[[record]]
line_notation = "CCOC(=O)c1ccc(NC(=O)NNc2nc3ccccc3c(=O)n2-c2cccc(OC(C)C)c2)cc1"
recorded_metric = "pIC50"
value_measured = 5.50

[[record]]
line_notation = "CC(C)Oc1cccc(-n2c(NNC(=O)Nc3cccc(Cl)c3)nc3ccccc3c2=O)c1"
recorded_metric = "pIC50"
value_measured = 5.62

[[record]]
line_notation = "COc1ccc(NC(=O)NNc2nc3ccccc3c(=O)n2-c2cccc(OC(C)C)c2)cc1"
recorded_metric = "pIC50"
value_measured = 4.81

[[record]]
line_notation = "CCOc1cccc(-n2c(NNC(=O)Nc3cccc(C#N)c3)nc3ccccc3c2=O)c1"
recorded_metric = "pIC50"
value_measured = 5.35

[[record]]
line_notation = "COc1cccc(N(CC(=O)N(C)c2ccccc2)C(=O)CNC(=O)Nc2cccc(C)c2)c1"
recorded_metric = "pIC50"
value_measured = 6.85

[[record]]
line_notation = "CCOC(=O)c1cccc(NC(=O)NNc2nc3ccccc3c(=O)n2-c2cccnc2)c1"
recorded_metric = "pIC50"
value_measured = 4.95

[[record]]
line_notation = "CC(C)Oc1cccc(-n2c(NNC(=O)Nc3cccc(C(=O)O)c3)nc3ccccc3c2=O)c1"
recorded_metric = "pIC50"
value_measured = 5.09

[[record]]
line_notation = "CCOC(=O)c1cccc(NC(=O)NNc2nc3ccccc3c(=O)n2-c2cccc(N(C)C)c2)c1"
recorded_metric = "pIC50"
value_measured = 5.58

